# test: yeast display, Sf9 membrane polyspecificity reagent, FACS + sequencing; frameworks hold sequencing errors
measurement_name: polyreactivity (PSR sort gate)

[[record]]
chain_sequence = "QVQLVESGGGLVQAGGSLRLTCAASGRTFARNAMGWYRQAPGKERELVAAITRSGGSTYYADSVKGRFTISRDNAKNTVYLQMNSLKPEDTAVYYCAADVRTYRGYYWKAFDYWGQGTQVTVSS"
measurement_name = "polyreactivity (PSR sort gate)"
reported_value = "high polyreactivity"

[[record]]
chain_sequence = "QVQLVESGGGLVQAGGSLRLSCAASGFTFPRYAMGWYRQAPGKERELVAVITRRGGSTYYADSVKGRFTISRDNAKNTVYLQMNSLKPEDTAVYYCAARQYSYNGGYGYWGQGTQVTVSS"
measurement_name = "polyreactivity (PSR sort gate)"
reported_value = "high polyreactivity"

[[record]]
chain_sequence = "QVQLVESGGGLVQAGGSLRLSCAASGSTSRSAMGWYRQAPGKERELVASITRGGSTYYADSVKGRFTISRDNAKNTVYLQMNSLKPEDTAVYYCAARFPQHNYWAMDYWGQGTQVTVSS"
measurement_name = "polyreactivity (PSR sort gate)"
reported_value = "high polyreactivity"

[[record]]
chain_sequence = "QVQLVESGGGLVQAGGSLRLSCAASGFINSDYAMGWYRPAPGKERELVAVITWRSGSTYYADSVKGRFTISRDYAKNTVYLQMNSLKPEDTAVYYCAARNYRNYSQGRRLGYNDWGQGTQVTVTS"
measurement_name = "polyreactivity (PSR sort gate)"
reported_value = "high polyreactivity"

[[record]]
chain_sequence = "QVQLVESGGGLVQAGGSLRLSCAASGRTFYFYTLGWYRPAPGKERELVAAITSGGSTNYADSVKGRFTISRDNAKNTVYLQMNSLIPEDTAVYYCAAKYYRVYGYGLRMYYWGQGTQVTVSS"
measurement_name = "polyreactivity (PSR sort gate)"
reported_value = "high polyreactivity"


----------
# test: yeast display, Sf9 membrane polyspecificity reagent, FACS + sequencing; frameworks hold sequencing errors
measurement_name: polyreactivity (PSR sort gate)

[[record]]
chain_sequence = "QVQLVESGGRLVQAGGSLRFTCAASGSIFYSYAMGWYRQAPGKERELLAAINYSGSSTYYADSVKGRFTISRDNAKNTVYLQMNSLKPEDTAVYYCAAVIHSQYVDYYYWGQGTQVTVSS"
measurement_name = "polyreactivity (PSR sort gate)"
reported_value = "high polyreactivity"

[[record]]
chain_sequence = "QVQLEESGGGLVQAGGSLRLSCAASGSIFNRYAMGWYRQAPGKEWELVAAISRSGGRTYYADSVKGRFTISRDNAKNTVYLQMNSLKPEDTAVYYCAADKYYRQHEYDYLGQGTQVTVSS"
measurement_name = "polyreactivity (PSR sort gate)"
reported_value = "high polyreactivity"

[[record]]
chain_sequence = "QVQLVESGGGLVQAGGSLRLSCAASGRTFRPYAMGWYRQAPGKERELVAAITSGVSTYYADSVKGRFTISRDNAKNTVYLQMNSLKPEDTAVYYCNKVISREVGIRMDYWGQGTQVTVSS"
measurement_name = "polyreactivity (PSR sort gate)"
reported_value = "high polyreactivity"

[[record]]
chain_sequence = "QVQLVESGGGLVQAGGSLRLSCAASGIPFKGYAMGWYRQAPGQERELVAASNSRGGTYADSVKGRFTISRDNAKNTVYLQRNSLKPEDTAVYYCGVSAVRPLPLDSGYDYWGQGSQVTVSS"
measurement_name = "polyreactivity (PSR sort gate)"
reported_value = "low polyreactivity"

[[record]]
chain_sequence = "QVQLVESGRGLVRAGGSLRLSCAASGRTFGVYAMGWYRQAPGKERELVASIRYSGVSTYYADSVKGRFTISRDNAKNTVYLQMNSLKPEDTAVYYCAARYRSRRVDYGYDYWGQGTQVTVSS"
measurement_name = "polyreactivity (PSR sort gate)"
reported_value = "high polyreactivity"

[[record]]
chain_sequence = "QVQLVESGGGLDQAGGSLRLTCAASGSIFVYNAMGWYRQAPGKEREFVAAITWRGGRTYYADSVKGRFTISRDNAKNTVYLQMNSLKPEDTAVYYCAADGGSTLDYYWGQGTQVTVSS"
measurement_name = "polyreactivity (PSR sort gate)"
reported_value = "low polyreactivity"

[[record]]
chain_sequence = "QVQLVESGGGLVQAGGSLRLSSAASRSTFTVYAMGWYRQAPGKETELVAAITGGGRTYYADSVKGRFTISRDNAKNTVYLQMNSLKPEDTAVYYCAKKYSWRYARVYSLHFDYWGQGTQVTVSS"
measurement_name = "polyreactivity (PSR sort gate)"
reported_value = "high polyreactivity"

[[record]]
chain_sequence = "QVHLVESGGGLVQAGGSLRLSCAASGRIFSGYAMGWYRQAPGKERELVAAITSGASTNYADSVNGRFTISRDNPKITVYLQLNSLKPVVTAFYYCAATFHSWRGQYLWYDYWGQGTQVTVSS"
measurement_name = "polyreactivity (PSR sort gate)"
reported_value = "low polyreactivity"

[[record]]
chain_sequence = "QVQLVESGGGLVQAGGSLRLSCAASGRIIAGYAMGLYRQAPGKERELVAAISSGGSTYYADSVKGRFTISRDNAKNTVYLQMNSLKPSDTAVYYCAAGGPRVYGTKFYYCGQGTQVTVSS"
measurement_name = "polyreactivity (PSR sort gate)"
reported_value = "high polyreactivity"

[[record]]
chain_sequence = "QVQLVESGGGLVQAGGSLRLSCAASGRTFDVYAMGWYRQAPGKERELVAAISKRGGSTYYADSVKGRFTISRDNAKNTVYLQMNSLKPEDTAVYYCNAYQTGWKGYDYWGQGTQVTVSS"
measurement_name = "polyreactivity (PSR sort gate)"
reported_value = "high polyreactivity"

[[record]]
chain_sequence = "QVQLVESGGGLVQAGGSLRLSCAASGSTFTFYAMGWYRQAPGKERELVAAISGRGGSTYYADSVKGRFTISRDNAMNTVYLQMNSLKPEDTAVYYCAAGWSRVWRRDFGYWGQGTQVTVSS"
measurement_name = "polyreactivity (PSR sort gate)"
reported_value = "low polyreactivity"


----------
# test: yeast display, Sf9 membrane polyspecificity reagent, FACS + sequencing; frameworks hold sequencing errors
measurement_name: polyreactivity (PSR sort gate)

[[record]]
chain_sequence = "QVQLVESGGGLVQAGGSLRLSCAASGSIFAINAMGWYRQAPGKERELVAAIRRRDGNTYYADSVKGRFTISRDNAKNSVYLQMNSLKPEDTAVYYCNTYSRRTSVIAYRYNYWGQGTQVTVSS"
measurement_name = "polyreactivity (PSR sort gate)"
reported_value = "high polyreactivity"

[[record]]
chain_sequence = "QVQHVESGGGLVQAGGSLRLTCAASGYIFYYNAMGWYRHAPGKEREMVAAINYSGTSTYYADSVKGRFTISRDNAKNTVYLQMNSLKPEDTAVFYCAKVPHYPLAGRLAILDYWGQGSQVTVSS"
measurement_name = "polyreactivity (PSR sort gate)"
reported_value = "high polyreactivity"


----------
# test: yeast display, Sf9 membrane polyspecificity reagent, FACS + sequencing; frameworks hold sequencing errors
measurement_name: polyreactivity (PSR sort gate)

[[record]]
chain_sequence = "QVQLVESGGGLVQAGGSLRLSCAASGSIFTPNGRGWYRPAPGKDSELVAAISQSGGSTFYADSVKGRFTMSRDNAKYTVYLQMNSLKPEDSAVYYCATEYYGPVYDLDYDYWGQGSQVTVSS"
reported_value = "low polyreactivity"

[[record]]
chain_sequence = "QVQLVESGGGLVQAGGSLRLSCAASGRIFAYYVMGWYRQAPGKERELVASISSGGGTYYADSVKGRFTISRDNAKNTVYLQMNSLKPEDTAVYYCAARWRRYVYPDGHLFWYDYWGQGTQVTVSS"
reported_value = "high polyreactivity"

[[record]]
chain_sequence = "QVQLVESGGGLVQAGGRLRLSCAASGITFSYYAMGRYRQAPGKERELVAAISSGGRTYYADSVKGRFTISRDNAKNTVYLQMNSLKQEDTAVYYCAASFLVTSREYDYWGQGTQVTVSS"
reported_value = "high polyreactivity"

[[record]]
chain_sequence = "QVQLVESGGGLVQAGGSRRLSCAASGSTFYPYSMGWYRQAPGKESELVAAITWSGGRTYYADSVKGRFTISRDNANNTVYLQMNSLKPEDTAVYYCAADRPDGWVDYWGQGTQVTVSS"
reported_value = "low polyreactivity"

[[record]]
chain_sequence = "QVQLVESGGGLVQAGGSLRLSCAASGSTFYSYAMGWYRQAPGKERELVAAIDWSGDNTNYADSVKGRFTISRDNAKNTVYLQMNSLKPEDTAVYYCAAVYSYYRLYAYPAYYYWGQGTQVTVSS"
reported_value = "low polyreactivity"


----------
# test: yeast display, Sf9 membrane polyspecificity reagent, FACS + sequencing; frameworks hold sequencing errors
measurement_name: polyreactivity (PSR sort gate)

[[record]]
chain_sequence = "QVQLVESGGGLVQAGGSLRLICAASGFIFWIYAMGWYRQAPGKEREFVAVITYRGDTTYYADSVKGRFTISRDNAKNTVYLQMNSLKPEDTAVYYCAAYTVQKYGYWGQGTQVTVSS"
reported_value = "low polyreactivity"

[[record]]
chain_sequence = "QVQLVESGGGLVQAGGSLRLSCAASGGIFVGYAMGWYRQAPGKERELVAAISSGGNTYYADSVKGRFTISRDNAKNTVYLQMNSLKPEDTAVYYCAAVRQYQGYRYDYWGQGTQVTVSS"
reported_value = "high polyreactivity"

[[record]]
chain_sequence = "QVQLVESGGGLVQAGGSLRLSCAASGRTFEKNAMGWYRQAPGKERELVASITSVGSTDYADSVKGRFTISRDNAKNTVYLQMNSLKPEDTAVYYCAKTLGSQNYDFDYWGQGTQVTVSS"
reported_value = "low polyreactivity"

[[record]]
chain_sequence = "QVQLVESGGGLVQAGGSLRLSCAASGSTFVANVMGWYRQAPGKERELVAAINTNGGSTYYADSVKGRFTISRDNAKNTVYLQMNSLKPEDTAVYYCNKAWFRYWYGYWGQGTQVTVSS"
reported_value = "low polyreactivity"

[[record]]
chain_sequence = "QVQLVESGGGLVQAGGSLRLSCAASGSIFYYNTMGWYRQAPGKERELVAAIRSSSGRTYYADSVKGRFTISRDNAKNTVYLQMNSLKPEDTAVYYCATVHSYTIQRYDYWGQGTQVTVSS"
reported_value = "high polyreactivity"

